Assayed target: human BCL6 BTB domain (Trx-6×His-BCL6) / BCOR-AF633 peptide (Homo sapiens (Human))
Experiment summary: HTRF assay
Assay type: binding
Test parameters: 1 nM Trx-6×His-BCL6, 300 nM BCOR-AF633 peptide, 2 hours incubation
Readout type: HTRF avg pIC50 (1 nM)
The reply should be a number, written without any unit.

Quote HTRF avg pIC50 (1 nM) reported for Cn1c(=O)c2c(c3cc(Nc4nc(N5C6CCC5COC6)ncc4F)ccc31)N[C@@H](C1CC1)C(F)(F)CO2 [Example 13j] please. 8.60

Return value of HTRF avg pIC50 (1 nM) for input C[C@H]1COC(=O)c2c(c3cc(Nc4nc(N5CCCC5=O)ncc4Cl)ccc3n(C)c2=O)N1 , no commentary. 6.23

Item C[C@H]1COC(=O)c2c(c3cc(Nc4ccnc(Cl)c4C#N)ccc3n(C)c2=O)N1 : provide HTRF avg pIC50 (1 nM) 7.01

Return value of HTRF avg pIC50 (1 nM) for input Cn1c(=O)c2c(c3cc(Nc4nc(N5C6COCC5CC(O)C6)ncc4Cl)ccc31)N[C@@H](C1CC1)C(F)(F)CO2 (stereo partly shown) [Example 11c] , no commentary. 8.93

Provide one value: measured HTRF avg pIC50 (1 nM) of Cn1c(=O)c2c(c3cc(Nc4nc(N5C6COCC5CC(C)(O)C6)ncc4Cl)ccc31)N[C@@H](C1CC1)CCO2 (stereo partly shown) [Example 12h] 7.93

Look up HTRF avg pIC50 (1 nM) of Cn1c(=O)c2c(c3cc(Nc4ccnc(Cl)c4C#N)ccc31)N[C@@H](C1CC1)CCS2(=O)=O and report it. 8.15

Please give the documented HTRF avg pIC50 (1 nM) of Cn1c(=O)c2c(c3cc(Nc4ccnc(Cl)c4C#N)ccc31)NC1(CCOC1)CCO2 (stereo not shown) 6.14

* * *

Please respond with reported HTRF avg pIC50 (1 nM) for every item in the list.
Assayed target: human BCL6 BTB domain (Trx-6×His-BCL6) / BCOR-AF633 peptide (Homo sapiens (Human))
Experiment summary: HTRF assay
Format: binding
Test parameters: 1 nM Trx-6×His-BCL6, 300 nM BCOR-AF633 peptide, 2 hours incubation
// keep it numeric: no unit symbol after the value

State its HTRF avg pIC50 (1 nM): CN1CCN(c2ncc(F)c(Nc3ccc4c(c3)c3c(c(=O)n4C)OCC(F)(F)[C@H](C4CC4)N3)n2)CC1=O [Example 13i] 8.45

Assign HTRF avg pIC50 (1 nM) to the following record: COC[C@@H]1CCCN1C(=O)c1cc(Nc2ccc3c(c2)c2c(c(=O)n3C)OCC[C@H](C)N2)c(Cl)cn1 6.70

Identify measured HTRF avg pIC50 (1 nM) associated with Cn1c(=O)c2c(c3cc(Nc4nc(N5CCc6ncnc(O)c6C5)ncc4Cl)ccc31)N[C@@H](C1CC1)C(F)(F)CO2 [Example 13a] 8.68

Give the measured HTRF avg pIC50 (1 nM) for C[C@@H]1CN(c2ncc(Cl)c(Nc3ccc4c(c3)c3c(c(=O)n4C)OCC[C@H](C)N3)n2)C[C@H](C)O1 6.88

Give HTRF avg pIC50 (1 nM) for the following compound: Cn1c(=O)c2c(c3cc(Nc4nc(N5CCC(F)(F)[C@@H](O)C5)ncc4Cl)ccc31)N[C@@H](C1CC1)CCO2 (single isomer, unassigned) [Example 12z] 7.52

Using known records, supply HTRF avg pIC50 (1 nM) for Cn1c(=O)c2c(c3cc(Nc4nc(N5C6COCC5CC(O)C6)ncc4Cl)ccc31)N[C@@H](C1CC1)CCS2 (some centres unmarked) [Example 15a] 8.12

For the compound C[C@@H]1CN(c2nc(Cl)c(Cl)c(Nc3ccc4c(c3)c3c(c(=O)n4C)OCC[C@H](C4CC4)N3)n2)C[C@H](C)O1 , give its reported HTRF avg pIC50 (1 nM). 6.51

Give a short answer stating reported HTRF avg pIC50 (1 nM) for C[C@H]1CCOc2c(c3cc(Nc4nc(N5CCC(C(=O)N(C)C)CC5)ncc4Cl)ccc3n(C)c2=O)N1 . 6.83

Please supply the value of reported HTRF avg pIC50 (1 nM) for the item Cn1c(=O)c2c(c3cc(Nc4nc(N5C6COCC5CC(O)C6)ncc4Cl)ccc31)N[C@@H](C1CC1)CCO2 (some centres unmarked) 7.97

Note down HTRF avg pIC50 (1 nM) recorded for Cn1c(=O)c2c(c3cc(Nc4ccnc(Cl)c4Cl)ccc31)N[C@@H](C1CC1)CCO2 6.85

Respond only with HTRF avg pIC50 (1 nM) recorded for Cn1c(=O)c2c(c3cc(Nc4nc(-n5ccc(C(F)(F)F)n5)ncc4Cl)ccc31)N[C@@H](C1CC1)CCO2 7.03

Give the measured HTRF avg pIC50 (1 nM) for Cn1c(=O)c2c(c3cc(Nc4nc(N5CC(F)(F)C[C@@H]5CO)ncc4Cl)ccc31)N[C@@H](C1CC1)C(F)(F)CO2 [Example 12x] 8.20

State its HTRF avg pIC50 (1 nM) for this compound: C[C@@H]1C[C@H](C)CN(c2ncc(Cl)c(Nc3ccc4c(c3)c3c(c(=O)n4C)OCC[C@H](C)N3)n2)C1 6.18

For the compound Cn1c(=O)c2c(c3cc(Nc4nc(N5CCC(F)(F)CC5)ncc4Cl)ccc31)NC(C1CC1)COC2=O (centres unmarked) , report HTRF avg pIC50 (1 nM). 6.43

Fill in reported HTRF avg pIC50 (1 nM) for this entry: CC1CSc2c(c3cc(Nc4ccnc(Cl)c4C#N)ccc3n(C)c2=O)N1 (centres unmarked) 6.00

Answer with the recorded HTRF avg pIC50 (1 nM) of CN1CCN(c2ncc(Cl)c(Nc3ccc4c(c3)c3c(c(=O)n4C)OCC(F)(F)[C@H](C4CC4)N3)n2)CC1=O [Example 12a] only. 8.82

Quickly give me recorded HTRF avg pIC50 (1 nM) for COCC1(C)CCOc2c(c3cc(Nc4ccnc(Cl)c4C#N)ccc3n(C)c2=O)N1 (centres unmarked) 6.30

Hello, please tell me recorded HTRF avg pIC50 (1 nM) for this one: C[C@H]1COC(=O)c2c(c3cc(Nc4nc(N5CCC6(CCCN(C)C6=O)CC5)ncc4Cl)ccc3n(C)c2=O)N1 6.69

Complete the entry with HTRF avg pIC50 (1 nM) for Cn1c(=O)c2c(c3cc(Nc4nc(N5CC(C)(C)OC(C)(C)C5)ncc4Cl)ccc31)N[C@@H](C1CC1)CCO2 7.22

Give the value of HTRF avg pIC50 (1 nM) reported for the following: C[C@@H]1CN(c2ncc(Cl)c(Nc3ccc4c(c3)c3c(c(=O)n4C)C(=O)OC[C@H](C4CC4)N3)n2)C[C@H](C)C1(F)F 6.38

Identify HTRF avg pIC50 (1 nM) associated with the compound Cn1c(=O)c2c(c3cc(Nc4nc(N5CCN(CCC#N)CC5)ncc4Cl)ccc31)N[C@@H](C1CC1)C(F)(F)CO2 [Example 13f] 8.66

Provide one value: measured HTRF avg pIC50 (1 nM) of Cn1c(=O)c2c(c3cc(Nc4nc(N5CC6CCC(C5)O6)ncc4Cl)ccc31)N[C@@H](C1CC1)CCO2 [Example 12g] 7.54

State its HTRF avg pIC50 (1 nM) for this compound: C[C@H]1CCOc2c(c3cc(Nc4ccnc(Cl)c4Cl)ccc3n(C)c2=O)N1 6.21

State, in one line, measured HTRF avg pIC50 (1 nM) of CC1CNC(=O)c2c(c3cc(Nc4ccnc(Cl)c4C#N)ccc3n(C)c2=O)N1 (centres unmarked) [Example 18a] 6.58

# return recorded HTRF avg pIC50 (1 nM) for entry O=c1c2c(c3cc(Nc4nc(N5C6CCC5COC6)ncc4Cl)ccc3n1CC1CC1)N[C@@H](C1CC1)CCO2 7.41

State its HTRF avg pIC50 (1 nM): C[C@H]1C[C@@H](O)CN(c2ncc(Cl)c(Nc3ccc4c(c3)c3c(c(=O)n4C)OCC(F)(F)[C@H](C4CC4)N3)n2)C1 (single isomer, unassigned) [Example 13d] 8.70

Specify reported HTRF avg pIC50 (1 nM) for the compound shown: Cn1c(=O)c2c(c3cc(Nc4ccnc(Cl)c4C#N)ccc31)N[C@@H](C1CC1)COC2 6.57

Write down HTRF avg pIC50 (1 nM) measured for item Cn1c(=O)c2c(c3cc(Nc4ccnc(Cl)c4C#N)ccc31)NC(C(F)F)CCO2 (centres unmarked) 5.67

Give the reported value of HTRF avg pIC50 (1 nM) for this record: C[C@@H]1CN(c2ncc(Cl)c(Nc3ccc4c(c3)c3c(c(=O)n4C)C(=O)OC[C@H](C)N3)n2)C[C@H](C)O1 6.97
